Reference source for all entries: patent US20250051277A1

Type: physicochemical
Conditions: DI water, 25° C., 0.5 mM; time 24 h
The following compounds are shown together with reported Condition 2 Conversion (%) values.
readoutType: Condition 2 Conversion (%)

- compound: "COc1ccc([C@@]23CCC(=NNc4cnccn4)C[C@@H]2N(C)CC3)cc1OC"
  numericReadout: 17.4
- compound: "COc1ccc([C@@]23CC/C(=N\\NC(=O)c4ccccc4C(=O)O)C[C@@H]2N(C)CC3)cc1OC"
  numericReadout: 66.56
- compound: "COc1ccc([C@@]23CCC(=NNc4ccc(C(=O)O)cc4)C[C@@H]2N(C)CC3)cc1OC"
  numericReadout: 8.1
- compound: "COc1ccc([C@@]23CCC(=NNCc4ccccn4)C[C@@H]2N(C)CC3)cc1OC"
  numericReadout: 50
- compound: "COc1ccc([C@@]23CCC(=NNC(=O)COc4ccccc4)C[C@@H]2N(C)CC3)cc1OC"
  numericReadout: 81.3
- compound: "COc1ccc([C@@]23CCC(=NOC4CCCCO4)C[C@@H]2N(C)CC3)cc1OC (some centres unmarked)"
  numericReadout: 0
- compound: "COc1ccc([C@@]23CCC(=NOCC(=O)OC(C)(C)C)C[C@@H]2N(C)CC3)cc1OC"
  numericReadout: 0
- compound: "COc1ccc([C@@]23CC/C(=N/OC45CC6CC(CC(C6)C4)C5)C[C@@H]2N(C)CC3)cc1OC [Compound 274]"
  numericReadout: 0
- compound: "COc1ccc([C@]23CCN(C)[C@H]2CC2(CC3)OCC(C(=O)O)O2)cc1OC (some centres unmarked)"
  numericReadout: 0
- compound: "COc1ccc([C@@]23CC/C(=N\\NC(=O)Nc4ccc(N5CCN(C)CC5)cc4)C[C@@H]2N(C)CC3)cc1OC"
  numericReadout: 95
- compound: "COc1ccc([C@@]23CCC(=NNc4ncccc4C)C[C@@H]2N(C)CC3)cc1OC"
  numericReadout: 78.89
- compound: "COc1ccc([C@@]23CC/C(=N\\NC(=O)NC[C@H]4CC[C@H](C(=O)O)CC4)C[C@@H]2N(C)CC3)cc1OC"
  numericReadout: 0
- compound: "COc1ccc([C@@]23CCC(=NOCc4cccnc4)C[C@@H]2N(C)CC3)cc1OC"
  numericReadout: 0
- compound: "COc1ccc([C@@]23CCC(=NNC(=O)CC[C@H](NC(=O)c4ccc(NCc5cnc6nc(N)nc(O)c6n5)cc4)C(=O)O)C[C@@H]2N(C)CC3)cc1OC"
  numericReadout: 100
- compound: "COc1ccc([C@@]23CCC(=NNc4ccc5ccccc5n4)C[C@@H]2N(C)CC3)cc1OC"
  numericReadout: 17.4
- compound: "COc1ccc([C@@]23CCC(=NNC(=O)c4ccc(F)cc4)C[C@@H]2N(C)CC3)cc1OC"
  numericReadout: 89.93
- compound: "COc1ccc([C@@]23CCC(=NNC(=O)C45CC6CC(CC(C6)C4)C5)C[C@@H]2N(C)CC3)cc1OC"
  numericReadout: 100
- compound: "COc1ccc([C@@]23CC/C(=N/OC(C)(C)OC)C[C@@H]2N(C)CC3)cc1OC"
  numericReadout: 0
- compound: "COc1ccc([C@@]23CCC(=NNC(=O)CC(CC(=O)O)CC(C)C)C[C@@H]2N(C)CC3)cc1OC (some centres unmarked)"
  numericReadout: 55.7
- compound: "CCC(=O)OC1=C[C@@H]2N(C)CC[C@]2(c2ccc(OC)c(OC)c2)CC1"
  numericReadout: 0
- compound: "COc1ccc([C@]23CCN(C)[C@H]2CC(OC)(OC)CC3)cc1OC (stereo in doubt)"
  numericReadout: 0
- compound: "COc1ccc([C@@]23CCC(OC(=O)c4ccccc4C)=C[C@@H]2N(C)CC3)cc1OC"
  numericReadout: 0
- compound: "COc1ccc([C@@]23CC/C(=N\\NC(=O)C4(C(=O)O)CC4)C[C@@H]2N(C)CC3)cc1OC"
  numericReadout: 46.78
- compound: "C/C=C(\\C)C(=O)OC1=C[C@@H]2N(C)CC[C@]2(c2ccc(OC)c(OC)c2)CC1"
  numericReadout: 0
- compound: "COc1ccc([C@@]23CCC(=NOCCON=C4CC[C@@]5(c6ccc(OC)c(OC)c6)CCN(C)[C@H]5C4)C[C@@H]2N(C)CC3)cc1OC"
  numericReadout: 0
- compound: "CCON=C1CC[C@@]2(c3ccc(OC)c(OC)c3)CCN(C)[C@H]2C1"
  numericReadout: 0
- compound: "COc1ccc([C@@]23CCC(=NNc4ccc(F)cc4)C[C@@H]2N(C)CC3)cc1OC"
  numericReadout: 100
- compound: "COc1ccc([C@@]23CC/C(=N\\OC(C)(C)OC)C[C@@H]2N(C)CC3)cc1OC"
  numericReadout: 0
- compound: "COc1ccc([C@@]23CCC(=NNC(=O)Nc4ccc(C(=O)O)cc4)C[C@@H]2N(C)CC3)cc1OC (racemic)"
  numericReadout: 7.8

----------
Type: physicochemical
Settings: SGF with pepsin, pH 1.5, 37° C., 0.5 mM; time 5 min
readoutType: Condition 1 Conversion (%)

- compound: "COc1ccc(C23CCN(C)C2CC2(CC3)OCCO2)cc1OC (stereo not drawn) [Compound 044]"
  numericReadout: 0
- compound: "COc1ccc([C@@]23CCC(=NOCC(=O)O)C[C@@H]2N(C)CC3)cc1OC [Compound 201]"
  numericReadout: 0
- compound: "COc1ccc([C@@]23CCC(=NNC(=O)C45CC6CC(CC(C6)C4)C5)C[C@@H]2N(C)CC3)cc1OC [Compound 271]"
  numericReadout: 100
- compound: "COc1ccc([C@@]23CC/C(=N\\NC(=O)c4ccccc4C(=O)O)C[C@@H]2N(C)CC3)cc1OC [Compound 244]"
  numericReadout: 100
- compound: "COc1ccc([C@]23CCN(C)[C@H]2CC2(CC3)SCCS2)cc1OC [Compound 045]"
  numericReadout: 0
- compound: "COc1ccc([C@@]23CCC(=NNC(=O)C(=O)O)C[C@@H]2N(C)CC3)cc1OC [Compound 241]"
  numericReadout: 100
- compound: "CO/N=C1\\CC[C@@]2(c3ccc(OC)c(OC)c3)CCN(C)[C@H]2C1 [Compound 038]"
  numericReadout: 0
- compound: "COc1ccc([C@@]23CCC(=NNCc4cccnc4)C[C@@H]2N(C)CC3)cc1OC [Compound 370]"
  numericReadout: 40
- compound: "CO/N=C1/CC[C@@]2(c3ccc(OC)c(OC)c3)CCN(C)[C@H]2C1 [Compound 035]"
  numericReadout: 0
- compound: "COc1ccc([C@@]23CCN(C)[C@@H]2CC2(CC3)SCCS2)cc1OC [Compound 046]"
  numericReadout: 0
- compound: "COc1ccc([C@]23CCN(C)[C@H]2CC2(CC3)O[C@@H]([C@@H](O)Cn3c4nc(=O)[nH]c(=O)c-4nc4cc(C)c(C)cc43)[C@@H](CO)O2)cc1OC (stereo partly drawn) [Compound 196]"
  numericReadout: 0
- compound: "COc1ccc([C@@]23CCC(=NNC(C)=O)C[C@@H]2N(C)CC3)cc1OC [Compound 222]"
  numericReadout: 100
- compound: "COc1ccc([C@@]23CC/C(=N\\NC(=O)Nc4ccc(N5CCN(C)CC5)cc4)C[C@@H]2N(C)CC3)cc1OC [Compound 257]"
  numericReadout: 54.1
- compound: "COc1ccc([C@@]23CCC(=NNC(=O)Nc4ccc(C(=O)O)cc4)C[C@@H]2N(C)CC3)cc1OC (racemic) [Compound 259]"
  numericReadout: 4.1
- compound: "COc1ccc([C@]23CCN(C)[C@H]2CC2(CC3)OCC(c3ccc([N+](=O)[O-])cc3)O2)cc1OC (stereo partly drawn) [Compound 114]"
  numericReadout: 0

----------
Format: physicochemical
Details: DI water, 25° C., 0.5 mM; time 4 h
The following molecules are shown together with reported Condition 2 Conversion (%) values.

- molecule: "COc1ccc([C@@]23CCC(=NNc4ccc5ccccc5n4)C[C@@H]2N(C)CC3)cc1OC"
  Condition 2 Conversion (%): 12.6
- molecule: "COc1ccc([C@@]23CCC(OC(=O)c4ccc(N(C)C)cc4)=C[C@@H]2N(C)CC3)cc1OC"
  Condition 2 Conversion (%): 0
- molecule: "COc1ccc([C@@]23CC/C(=N\\NC(=O)CCC(=O)O)C[C@@H]2N(C)CC3)cc1OC"
  Condition 2 Conversion (%): 100
- molecule: "C/C=C(\\C)C(=O)OC1=C[C@@H]2N(C)CC[C@]2(c2ccc(OC)c(OC)c2)CC1"
  Condition 2 Conversion (%): 0
- molecule: "COc1ccc(C23CCC(=NNC(=O)Nc4ccccc4)C[C@@H]2N(C)CC3)cc1OC (stereo in doubt)"
  Condition 2 Conversion (%): 0.89
- molecule: "COc1ccc([C@@]23CCC(=NNC(=O)Nc4cccc(O)c4)C[C@@H]2N(C)CC3)cc1OC"
  Condition 2 Conversion (%): 0
- molecule: "COc1ccc([C@@]23CCC(OC(=O)c4ccccc4C)=C[C@@H]2N(C)CC3)cc1OC"
  Condition 2 Conversion (%): 0
